test: qHTS assay to test for compound auto fluorescence at 460 nm (blue) in HepG2 cells (AID 720687); details: autofluorescence 405/460 nm, 1 h; series mostly up to 91.3 µM
Active and inactive are the calls of the source. The call rests on the fitted dose curve; in most records, active means well fitted curve in the direction sought with a large enough effect in the repeat runs; inconclusive means weak or mixed curves; inactive means flat fitted curve, though single readings scatter.

MOLECULE	fluorescence, % of fluorescent control
CCc1cc(SCc2sc(-c3ccc(C(F)(F)F)cc3)nc2CN2CCN(c3ccc(OC)cc3)CC2)ccc1OCC(=O)O	inactive
CSc1ccc(/C=C2/C(C)=C(CC(=O)O)c3cc(F)ccc32)cc1	inactive
CC(=O)OCC(C)OC(C)=O (stereo unspecified)	inactive
O=c1cc(-c2ccc(O)cc2)oc2cc(O)cc(O)c12	inactive
OCc1c[nH]c2ccccc12	inactive
CC(C)(C)CC(C)(C)c1ccc(O)c(Cc2ccc(Cl)cc2Cl)c1	inactive
